Biological target: PI3Kδ (p110δ/p85α) Recombinant Human Protein (Homo sapiens (Human), UniProt O00329)
Sequence (O00329 whole entry): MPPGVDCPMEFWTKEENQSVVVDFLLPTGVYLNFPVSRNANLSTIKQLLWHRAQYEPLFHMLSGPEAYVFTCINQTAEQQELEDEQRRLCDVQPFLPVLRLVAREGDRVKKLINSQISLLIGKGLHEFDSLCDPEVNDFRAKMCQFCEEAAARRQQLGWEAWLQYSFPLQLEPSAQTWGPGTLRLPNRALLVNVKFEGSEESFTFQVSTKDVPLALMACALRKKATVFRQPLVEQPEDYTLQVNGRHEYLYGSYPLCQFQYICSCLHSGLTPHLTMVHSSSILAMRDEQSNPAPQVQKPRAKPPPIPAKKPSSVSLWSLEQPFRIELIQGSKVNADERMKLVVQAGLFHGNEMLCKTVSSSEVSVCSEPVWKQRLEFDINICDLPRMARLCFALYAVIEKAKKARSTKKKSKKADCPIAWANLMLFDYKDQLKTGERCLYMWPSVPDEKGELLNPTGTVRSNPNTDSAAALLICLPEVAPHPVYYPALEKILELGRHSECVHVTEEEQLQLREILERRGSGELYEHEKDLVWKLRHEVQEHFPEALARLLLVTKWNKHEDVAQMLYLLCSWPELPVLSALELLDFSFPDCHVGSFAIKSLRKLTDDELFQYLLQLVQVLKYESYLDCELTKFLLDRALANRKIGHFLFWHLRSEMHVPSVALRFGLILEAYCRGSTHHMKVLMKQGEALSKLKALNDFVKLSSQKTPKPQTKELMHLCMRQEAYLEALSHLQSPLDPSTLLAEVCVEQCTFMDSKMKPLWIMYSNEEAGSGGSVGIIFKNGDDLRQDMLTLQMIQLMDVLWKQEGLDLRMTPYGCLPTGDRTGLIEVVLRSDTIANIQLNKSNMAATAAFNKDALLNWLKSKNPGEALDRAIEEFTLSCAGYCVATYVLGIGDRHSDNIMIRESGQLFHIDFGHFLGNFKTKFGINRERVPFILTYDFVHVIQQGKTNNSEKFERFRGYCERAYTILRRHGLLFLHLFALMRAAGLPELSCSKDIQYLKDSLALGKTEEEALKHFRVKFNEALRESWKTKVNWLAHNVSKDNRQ
Sequence (P27986 whole entry partner): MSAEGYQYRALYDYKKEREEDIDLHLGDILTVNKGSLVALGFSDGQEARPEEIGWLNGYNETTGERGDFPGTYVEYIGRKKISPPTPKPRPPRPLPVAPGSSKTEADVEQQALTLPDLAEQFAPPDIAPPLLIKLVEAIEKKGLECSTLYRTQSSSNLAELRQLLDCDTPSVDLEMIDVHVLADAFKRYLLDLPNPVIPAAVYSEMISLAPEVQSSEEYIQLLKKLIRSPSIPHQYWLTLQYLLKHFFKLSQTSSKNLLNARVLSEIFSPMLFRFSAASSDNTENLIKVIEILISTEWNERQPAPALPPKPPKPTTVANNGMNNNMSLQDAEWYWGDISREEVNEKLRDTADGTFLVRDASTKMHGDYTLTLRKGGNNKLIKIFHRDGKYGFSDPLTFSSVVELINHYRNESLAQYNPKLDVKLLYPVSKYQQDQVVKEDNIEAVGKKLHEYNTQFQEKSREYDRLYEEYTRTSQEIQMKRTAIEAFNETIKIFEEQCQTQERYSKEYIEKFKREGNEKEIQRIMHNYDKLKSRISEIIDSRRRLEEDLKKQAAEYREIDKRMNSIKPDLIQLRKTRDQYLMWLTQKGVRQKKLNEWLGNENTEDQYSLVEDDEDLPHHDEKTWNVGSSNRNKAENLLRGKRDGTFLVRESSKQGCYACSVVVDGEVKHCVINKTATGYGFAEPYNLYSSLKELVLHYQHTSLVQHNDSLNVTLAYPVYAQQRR
Experiment: PI3Kδ Scintillation Proximity Assay
Counter-ions that a name gives are not always drawn.
valueKind: IC50

Below, each entry is followed by its recorded IC50 result.
| compound | targetEntity | IC50 |
| --- | --- | --- |
| Cc1ccc(S(=O)(=O)NCCN2CCS(=O)(=O)CC2)cc1-c1cnc2c(N)ncnn12 | PI3Kδ (p110δ/p85α) Recombinant Human Protein (Homo sapiens (Human), UniProt O00329) | 100 to 500 nM |
| Cc1ccc(S(=O)(=O)N(C)C2CC2)cc1-c1cnc2c(N)ncnn12 | PI3Kδ (p110δ/p85α) Recombinant Human Protein (Homo sapiens (Human), UniProt O00329) | 500 to 2000 nM |

Query: IC50; subject: Cc1ccc(S(N)(=O)=O)cc1-c1cnc2c(N)nc(C(F)(F)F)nn12 [Example 336, trifluoroacetate salt]
100 to 500 nM

Ok, now CCS(=O)(=O)Nc1cc(-c2cnc3c(N)cc(Cl)cn23)c[nH]c1=O [Example 6, trifluoroacetate]
> 2000 nM

Let us now turn to Cc1ccc(S(=O)(=O)N[C@H]2CC[C@H](C(C)(C)O)CC2)cc1-c1cnc2c(N)ncnn12
500 to 2000 nM

Okay, and [2H]C([2H])([2H])c1ccc(S(=O)(=O)NC23CCC(O)(C2)C3)cc1-c1cnc2c(N)nc(C)cn12 ?
< 100 nM

# iterate: Cc1ccc(S(=O)(=O)N[C@H]2CC[C@H](O)CC2)cc1-c1cnc2c(N)cc(Cl)cn12 [Example 4, trifluoroacetate]
100 to 500 nM

====

Target: PI3Kδ (p110δ/p85α) Recombinant Human Protein (Homo sapiens (Human))
Experiment: PI3Kδ Scintillation Proximity Assay
Source text: Example C. PI3Kδ Scintillation Proximity Assay [γ-^33P]ATP (10 mCi/mL) and Wheat Germ Agglutinin (WGA) YSi SPA Scintillation Beads was purchased from Perkin-Elmer (Waltham, Mass.). Lipid kinase substrate, D-myo-Phosphatidylinositol 4,5-bisphosphate (PtdIns(4,5)P2)D (+)-sn-1,2-di-O-octanoylglyceryl, 3-O-phospho linked (PIP2), CAS 204858-53-7, was purchased from Echelon Biosciences (Salt Lake City, Utah). PI3Kδ (p110δ/p85α) Recombinant Human Protein was purchased from Eurofins (St Charles, Mo.). […]
pIC50: −log10 of the molar value. Counter-ions that a name gives are not always drawn.
valueKind: pIC50

Examples with their reported pIC50 follow.
| compound | pIC50 |
| --- | --- |
| CO[C@H]1CC[C@H](NS(=O)(=O)c2ccc(C)c(-c3cnc4c(N)ncnn34)c2)CC1 [Example 70] | 5.70 to 6.30 |
| Cc1ccc(S(=O)(=O)NC23CCC(CC#N)(CC2)C3)cc1-c1cnc2c(N)ncnn12 [Example 430, trifluoroacetate salt] | 6.30 to 7.00 |
| Cc1ccc(S(=O)(=O)N[C@H]2CC[C@H](O)CC2)cc1-c1cnc2c(N)nc(-c3cnn(C(C)(C)C#N)c3)cn12 [Example 78] | 6.30 to 7.00 |

Fill in the recorded pIC50 for this compound, with PI3Kδ (p110δ/p85α) Recombinant Human Protein (Homo sapiens (Human)) as test system: Cc1ccc(S(=O)(=O)NC23COC(C)(C2)C3)cc1-c1cnc2c(N)nc(C(F)(F)F)cn12 [Example 425, trifluoroacetate salt]
6.30 to 7.00

Data provenance: patent US10479795B2
